Molecular target: dopamine 2L receptors (Homo sapiens)
Sequence (P14416 whole entry): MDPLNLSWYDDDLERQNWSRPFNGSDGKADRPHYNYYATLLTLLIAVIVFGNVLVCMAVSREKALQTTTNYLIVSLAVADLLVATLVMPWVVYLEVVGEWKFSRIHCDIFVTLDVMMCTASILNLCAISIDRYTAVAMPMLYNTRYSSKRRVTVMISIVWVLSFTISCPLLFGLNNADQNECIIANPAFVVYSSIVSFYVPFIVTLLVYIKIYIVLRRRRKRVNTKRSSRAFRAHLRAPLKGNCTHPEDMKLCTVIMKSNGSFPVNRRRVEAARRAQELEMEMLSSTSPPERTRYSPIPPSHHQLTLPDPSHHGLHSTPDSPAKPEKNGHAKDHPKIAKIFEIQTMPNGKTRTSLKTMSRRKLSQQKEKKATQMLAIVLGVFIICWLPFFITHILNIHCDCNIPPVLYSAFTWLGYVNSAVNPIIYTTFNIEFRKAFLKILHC
Assay: Competition binding assay (dopamine 2L receptors), [3H]methylspiperone
Design: expressed in transfected cells
Settings: preliminary run that was not quality controlled; read-out: IC50, preliminary run
QUANTITY_KIND: IC50 (µM)
The answer is to be given in µM; state only the numeric part.

{"COMPOUND": "CCN(CC)CCNC(=O)c1cc(Cl)c(N)cc1OC [Metoclopramide, reference compound]", "IC50 / µM": 0.932}

I would be grateful if you could share the reported IC50 for CCN(CCNC(=O)c1cc(Cl)c(N)cc1OC)CCOCCOCCOCCOCCOC [mPEG5-N-Metoclopramide] .
15.1

---

System: Sprague-Dawley rat hepatocytes
Test: MetID determination in rat hepatocytes
Type: in vitro ADME
Settings: incubation of 10 μM mPEG8-N-metoclopramide; parent and its metabolites M (FIG. 4)
Listing: % of Total Metabolism, Rat Hep 1 hr of selected compounds
The answer is to be given in %; state only the numeric part.

Look over these answered cases.
{"COMPOUND": "CCN(CCNC(=O)c1cc(Cl)c(N)cc1OC)CCOCCOCCO [M8]", "TARGET_ENTITY": "Sprague-Dawley rat hepatocytes", "QUANTITY_KIND": "% of Total Metabolism, Rat Hep 1 hr", "VAL": 1.3}
{"COMPOUND": "CCN(CCO)CCNC(=O)c1cc(Cl)c(N)cc1OC [M6]", "TARGET_ENTITY": "Sprague-Dawley rat hepatocytes", "QUANTITY_KIND": "% of Total Metabolism, Rat Hep 1 hr", "VAL": 1}
{"COMPOUND": "CCN(CCNC(=O)c1cc(Cl)c(N)cc1OC)CCOCCO [M7]", "TARGET_ENTITY": "Sprague-Dawley rat hepatocytes", "QUANTITY_KIND": "% of Total Metabolism, Rat Hep 1 hr", "VAL": 1.2}
{"COMPOUND": "CCN(CCNC(=O)c1cc(Cl)c(N)cc1OC)CCOCCOCCOCCO [M13]", "TARGET_ENTITY": "Sprague-Dawley rat hepatocytes", "QUANTITY_KIND": "% of Total Metabolism, Rat Hep 1 hr", "VAL": 3.0}

Turning now to a further compound:
Tell me reported % of Total Metabolism, Rat Hep 1 hr for CCN(CCNC(=O)c1cc(Cl)c(N)cc1OC)CCOCCOCCOCCOCCOCCOCCOCCOC [mPEG8-N-Metoclopramide] , tested with Sprague-Dawley rat hepatocytes.
83

---

Assay: Chemical stability in potassium phosphate buffer
Format: physicochemical
Settings: 100 mM potassium phosphate buffer, pH 7.4 at 37° C. for up to 30 minutes
QUANTITY_KIND: chemical stability

{"COMPOUND": "CCN(CCNC(=O)c1cc(Cl)c(N)cc1OC)CCOCCOCCOCCOCCOCCOC [mPEG6-N-Metoclopramide]", "VAL": "chemically stable"}
{"COMPOUND": "CCN(CCNC(=O)c1cc(Cl)c(N)cc1OC)CCOCCOCCOCCOCCOC [mPEG5-N-Metoclopramide]", "VAL": "chemically stable"}
{"COMPOUND": "CCN(CC)CCNC(=O)c1cc(Cl)c(N)cc1OC [Metoclopramide, reference compound]", "VAL": "chemically stable"}
{"COMPOUND": "CCN(CCNC(=O)c1cc(Cl)c(N)cc1OC)CCOCCOCCOC [mPEG3-N-Metoclopramide]", "VAL": "chemically stable"}
